Target entity: UniProt:Q7Z2W7
Sequence (Q7Z2W7 whole entry): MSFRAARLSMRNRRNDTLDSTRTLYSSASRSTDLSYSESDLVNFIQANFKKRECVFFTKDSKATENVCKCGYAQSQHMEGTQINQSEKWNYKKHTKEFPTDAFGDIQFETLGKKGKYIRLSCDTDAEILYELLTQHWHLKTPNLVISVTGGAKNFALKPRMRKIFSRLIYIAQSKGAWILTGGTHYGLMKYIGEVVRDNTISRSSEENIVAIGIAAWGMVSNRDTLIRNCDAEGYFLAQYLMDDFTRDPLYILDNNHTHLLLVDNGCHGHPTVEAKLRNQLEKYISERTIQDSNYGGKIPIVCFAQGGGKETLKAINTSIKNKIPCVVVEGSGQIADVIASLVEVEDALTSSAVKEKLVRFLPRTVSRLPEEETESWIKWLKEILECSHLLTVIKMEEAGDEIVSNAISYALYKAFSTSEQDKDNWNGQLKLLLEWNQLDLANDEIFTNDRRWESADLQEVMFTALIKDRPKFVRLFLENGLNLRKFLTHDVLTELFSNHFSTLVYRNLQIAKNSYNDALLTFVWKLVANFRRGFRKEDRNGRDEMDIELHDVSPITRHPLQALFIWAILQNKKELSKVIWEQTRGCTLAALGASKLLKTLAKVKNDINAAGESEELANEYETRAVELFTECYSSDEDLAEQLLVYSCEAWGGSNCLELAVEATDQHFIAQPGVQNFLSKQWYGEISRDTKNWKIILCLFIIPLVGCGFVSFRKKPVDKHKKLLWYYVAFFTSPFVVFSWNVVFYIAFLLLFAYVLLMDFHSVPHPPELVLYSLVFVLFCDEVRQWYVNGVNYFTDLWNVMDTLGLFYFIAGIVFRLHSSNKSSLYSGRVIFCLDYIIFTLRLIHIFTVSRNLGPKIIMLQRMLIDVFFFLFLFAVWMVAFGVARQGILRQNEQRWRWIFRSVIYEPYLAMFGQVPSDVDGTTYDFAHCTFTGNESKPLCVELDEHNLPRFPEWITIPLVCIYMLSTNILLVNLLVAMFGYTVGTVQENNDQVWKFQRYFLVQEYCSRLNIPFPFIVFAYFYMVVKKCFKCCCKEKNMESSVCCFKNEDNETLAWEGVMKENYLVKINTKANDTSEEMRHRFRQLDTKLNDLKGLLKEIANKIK
Test details: Compound selectivity calcium mobilization assay in HEK293/TRPM8 cells
Condition description: HEK293/TRPM8 cells, calcium response (data not shown)
Recorded metric: pEC50
Note on units: pEC50 is unitless, being -log10 of a concentration expressed in mol/L.

Q. For the compound O=C1NC(c2cccc([N+](=O)[O-])c2)=CCN1c1ccccc1O [icilin, Icilin, reference compound] , what pEC50 is on record?
A. 6.77

----------
Target entity: human TRPA1 (Homo sapiens, UniProt O75762)
Sequence (O75762 whole entry): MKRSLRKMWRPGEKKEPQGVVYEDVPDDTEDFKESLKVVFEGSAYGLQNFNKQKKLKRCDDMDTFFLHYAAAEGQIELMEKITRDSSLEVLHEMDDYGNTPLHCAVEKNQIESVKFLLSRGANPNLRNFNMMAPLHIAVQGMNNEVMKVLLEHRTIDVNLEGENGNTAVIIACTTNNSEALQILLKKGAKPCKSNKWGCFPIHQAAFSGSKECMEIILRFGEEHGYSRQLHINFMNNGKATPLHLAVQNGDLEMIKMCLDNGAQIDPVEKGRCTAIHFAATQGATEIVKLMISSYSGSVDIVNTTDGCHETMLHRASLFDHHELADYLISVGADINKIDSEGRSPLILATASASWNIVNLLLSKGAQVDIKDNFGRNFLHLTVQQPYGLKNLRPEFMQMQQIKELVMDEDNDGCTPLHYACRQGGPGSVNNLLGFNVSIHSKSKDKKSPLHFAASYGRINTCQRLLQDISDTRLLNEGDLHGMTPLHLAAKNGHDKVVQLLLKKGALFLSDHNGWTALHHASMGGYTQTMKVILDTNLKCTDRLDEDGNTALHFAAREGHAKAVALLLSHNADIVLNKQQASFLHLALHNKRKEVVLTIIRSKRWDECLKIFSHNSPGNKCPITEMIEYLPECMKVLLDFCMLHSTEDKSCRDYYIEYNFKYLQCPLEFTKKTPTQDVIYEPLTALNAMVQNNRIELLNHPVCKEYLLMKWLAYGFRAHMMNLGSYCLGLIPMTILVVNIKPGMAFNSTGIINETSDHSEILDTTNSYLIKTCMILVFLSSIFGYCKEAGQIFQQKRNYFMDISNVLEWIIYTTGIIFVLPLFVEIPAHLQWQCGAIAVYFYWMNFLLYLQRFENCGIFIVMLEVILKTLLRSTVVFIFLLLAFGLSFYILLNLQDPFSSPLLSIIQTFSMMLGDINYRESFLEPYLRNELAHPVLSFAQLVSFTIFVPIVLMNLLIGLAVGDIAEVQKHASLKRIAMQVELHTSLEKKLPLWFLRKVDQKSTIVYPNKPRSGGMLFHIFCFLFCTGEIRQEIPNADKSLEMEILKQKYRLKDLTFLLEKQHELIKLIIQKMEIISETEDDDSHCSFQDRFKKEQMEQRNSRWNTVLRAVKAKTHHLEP
Test details: Calcium mobilization agonist assay in HEK293/TRPA1 cells
Assay type: cell-based
Condition description: HEK293/TRPA1 cells, calcium mobilization, agonist concentration-response; read-out: EC50
Recorded metric: EC50 (µM)
Only the number, expressed in µM, is required.

Q. For the compound CC(C)c1cc2c(c(O)c1O)[C@@]13CCCC(C)(C)[C@@H]1C[C@@H]2OC3=O , what EC50 is on record?
A. 12.5

----------
Target entity: human TRPA1 (Homo sapiens, UniProt O75762)
Test details: Calcium mobilization agonist assay in HEK293/TRPA1 cells
Type: cell-based
Recorded metric: EC50 (µM)
Only the number, expressed in µM, is required.

Q. For the compound O=C/C=C/c1ccccc1 [CA, cinnamaldehyde, reference compound] , what EC50 is on record?
A. 31.5

The origin of these recorded values is paper PMC6271858.
